Data credit: ChEMBL document CHEMBL1201862

tested on: SN12C; assay: NCI tumour cell line growth inhibition, 48 h
The source made the active and inactive calls. No stated cut-off is given here; in the data, active = GI50 up to about 1.1 µM and inactive = higher.
Assign GI50 to each entry below.

Report measured GI50; entry is CCOC(=O)/C(C[C@H]1OC(C)(C)O[C@@H]1[C@H]1COC(C)(C)O1)=N/O
> 100 µM (inactive)

Find the measured GI50 of COc1cc2c(cc1OC)C1Cc3ccccc3CCN1CC2 (stereo unspecified) and report it.
> 100 µM (inactive)

Specify measured GI50 for C=CCN(C(=O)CNC(=O)C(F)(F)F)c1cc(OCc2ccccc2)c2c(c1)c(C)cn2S(=O)(=O)c1ccccc1 .
> 100 µM (inactive)

Answer with reported GI50 of O=C1CC(Cc2n[nH]c3c2CCCC3)CC(=O)N1
> 100 µM (inactive)

Hello, please tell me recorded GI50 for this one: CN(CCCNC(=O)c1nn(-c2ccc(Cl)cc2Cl)c2c1Cc1ccccc1-2)CCCNC(=O)c1nn(-c2ccc(Cl)cc2Cl)c2c1Cc1ccccc1-2
1.67 µM (inactive)

Please report GI50 for the following compound: O=c1c2ccccc2oc2c1ccc1ncccc12
10.6 µM (inactive)

Return GI50 (reported value) for this compound: NC(=O)C(N)Cc1ccc(O)cn1 (stereo unspecified)
> 100 µM (inactive)

Read the entry Cc1ccc(NC(=O)C(=O)C(C(=O)/C=C/c2ccccc2)C2OC(=O)c3ccccc32)c(C)c1 (stereo unspecified) and write its reported GI50.
> 100 µM (inactive)

Answer with the recorded GI50 of COc1cc2cc3c4c(cc(OC)c(OC)c4c2cc1OC)CCN3C(=O)OCCBr only.
45 µM (inactive)

Name the recorded GI50 of the item Cc1cc(C)c2c(c1)C/C(=C\c1ccccc1C(=O)O)C2=O in your answer.
> 100 µM (inactive)

Please report the measured GI50 for CC(=O)O[C@@H]1[C@H](C(C)C)[C@@H](OC(C)=O)C/C(C)=C/CC[C@]2(C)O[C@@H]12
> 100 µM (inactive)

Given the compound NC(=O)N/N=C/C(/C=N/NC(N)=O)[N+](=O)[O-] , write its reported GI50.
> 100 µM (inactive)

Return reported GI50. Input compound: Cc1cc(C)n(-c2nsc3ccccc23)n1
> 100 µM (inactive)

Please give measured GI50 of the following entry: Cc1cc2c(C(C)C)c(O)c(O)c(C=O)c2c(O)c1-c1c(C)cc2c(C(C)C)c(O)c(O)c(C=O)c2c1O
6.14 µM (inactive)

For the compound O=C(Nc1ccccc1)c1cc(S(=O)(=O)Nc2n[nH]c(=O)[nH]2)c(SSc2cc(Cl)c(C(=O)Nc3ccccc3)cc2S(=O)(=O)Nc2n[nH]c(=O)[nH]2)cc1Cl , give its reported GI50.
> 100 µM (inactive)

Fill in reported GI50 for this entry: O=c1[nH]nc(-c2ccccc2)c(-c2ccccc2)c1-n1nc(-c2ccccc2)c2ccccc2c1=O
> 100 µM (inactive)

Return reported GI50. Input compound: CC1=CCN(c2ccccn2)OC1c1ccccc1 (stereo unspecified)
> 100 µM (inactive)

Supply GI50 value. Item: O=c1ss/c(=N\c2ccccc2)n1-c1ccccc1
20.4 µM (inactive)

Indicate its recorded GI50; the compound in question is CNC(N)NC
> 100 µM (inactive)

Give a short answer stating reported GI50 for COc1cc(-c2oc3c(OC)c(O)c(OC)c(O)c3c(=O)c2OC)ccc1O .
59.8 µM (inactive)

Provide measured GI50 value, entry: CN(C)Cc1c[nH]c2ncnc(O)c12
34.2 µM (inactive)
